src = patent US20180298070A1

Target: T1, human GIPR (human), P48546
T1 chain: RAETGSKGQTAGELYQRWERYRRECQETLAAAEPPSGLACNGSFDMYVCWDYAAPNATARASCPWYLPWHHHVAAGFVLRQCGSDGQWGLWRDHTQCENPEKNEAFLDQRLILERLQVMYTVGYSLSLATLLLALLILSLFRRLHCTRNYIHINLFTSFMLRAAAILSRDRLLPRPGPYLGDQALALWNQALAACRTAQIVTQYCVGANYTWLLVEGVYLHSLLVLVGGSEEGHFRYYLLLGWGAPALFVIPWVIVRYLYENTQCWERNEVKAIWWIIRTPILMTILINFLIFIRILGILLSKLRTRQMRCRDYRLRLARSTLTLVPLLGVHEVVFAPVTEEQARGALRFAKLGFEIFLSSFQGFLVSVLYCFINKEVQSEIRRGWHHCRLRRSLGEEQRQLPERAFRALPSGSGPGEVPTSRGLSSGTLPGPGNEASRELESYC
Non-standard residues stand in square brackets, D forms with d. Groups on a side chain read outwards from the residue. Primed or numbered codes have the meaning given here. No end group written: not given here. *: point of attachment. C20 diacid = O=C(O)CCCCCCCCCCCCCCCCCCC(=O)*; NMeY = CN[C@@H](Cc1ccc(O)cc1)C(=O)O; αMeF = C[C@](N)(Cc1ccccc1)C(=O)O; Lauroyl = CCCCCCCCCCCC(=O)*; Iva = CC[C@](C)(N)C(=O)O; PEG2′ = not defined here; Hexanoyl = CCCCCC(=O)*; Aib = CC(C)(N)C(=O)O
experimental endpoint: log10 Agonist activity (EC50, M) (log10 of the value in M)
Hey, these are logged values: log10 of Agonist activity (EC50, M), M being the unit before logging.

Solved cases below.
{"binder": "Y[Aib]EGTFISDYSK([PEG(2)-Lauroyl])ALDRIAQQSFVNWLLAQRPSSGAPPPS (ends and bridges not checked) [Compound 203]", "experimental endpoint": "log10 Agonist activity (EC50, M)", "test value": -11.37}
{"binder": "Y[Aib]EGTFISDYSK([PEG(2)-Hexanoyl])ALDRIHQQDFVNWLLAQRPSSGAPPPS (ends and bridges not checked) [Compound 174]", "experimental endpoint": "log10 Agonist activity (EC50, M)", "test value": -11.38}
{"binder": "Y[Aib]EGTVVSLYSK([Gly-Gly-Gly-Gly-C20 diacid])[Aib]LDRQAQ[Aib]EFVK(Ac)WLLAQR (ends and bridges not checked) [Compound 260]", "experimental endpoint": "log10 Agonist activity (EC50, M)", "test value": -9.59}

Query string: Fill in: log10 Agonist activity (EC50, M) of Y[Aib]EGTFISDYSK([PEG(2)-Ac])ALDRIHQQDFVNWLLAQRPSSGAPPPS (ends and bridges not checked) [Compound 173] is ___
Result string: -11.36

Query string: Fill in: log10 Agonist activity (EC50, M) of Ac-Y[Aib]EGTFISDYSIALDRIAQ[Aib]S[αMeF]VNW[Iva]LAQRPSSGAPPPSR (ends and bridges not checked) [Compound 155] is ___
Result string: -11.77

Query string: Fill in: log10 Agonist activity (EC50, M) of Y[Aib]EGTFISDYSK([PEG2′-pentadecanoyl])ALDRIAQQDFVNWLLAQRPSSGAPPPSR (ends and bridges not checked) [Compound 187] is ___
Result string: -10.92

Query string: Fill in: log10 Agonist activity (EC50, M) of [NMeY][Aib]EGTFISDYSIALDR[Aib]AQ[Aib]N[αMeF]VNWLLAQRPSSGAPPPSR (ends and bridges not checked) [Compound 98] is ___
Result string: -11.85

Query string: Fill in: log10 Agonist activity (EC50, M) of Me-Y[Aib]EGTFISDYSIALDRIAQ[Aib]D[αMeF]VNWLLAQRPSSGAPPPSR (not fully specified (residue 1, C-terminus); ends and bridges not checked) [Compound 135] is ___
Result string: -11.74

Query string: Fill in: log10 Agonist activity (EC50, M) of [NMeY][Aib]EGTFISDYSIALDRIAQQD[αMeF]VNWLLAQRPSSGAPPPS (ends and bridges not checked) [Compound 62] is ___
Result string: -12.00
